Could you please report measured IC50 for the items listed next?
# Tested on: Plasmodium falciparum
# EXPERIMENT: Antiplasmodial activity against Plasmodium falciparum K1 as [3H]hypoxanthine uptake
# Assay type: functional, organism-based
# TEST_CONTEXT: K1, 72 h
Please give a number only; it is taken to be in nM.

IN: Consider the compound shown here: `O=C(Cc1cccc(Cl)c1)NC[C@H]1O[C@@H](n2cnc3c(NCc4ccc(Oc5ccccc5)cc4)ncnc32)[C@H](O)[C@@H]1O` What is its recorded IC50?
OUT: 3100

IN: Consider the compound shown here: `O=C(NC[C@H]1O[C@@H](n2cnc3c(NCc4ccc(Oc5ccccc5)cc4)ncnc32)[C@H](O)[C@@H]1O)c1ccc2c(c1)ncn2Cc1ccccn1` What is its recorded IC50?
OUT: 4000

IN: Consider the compound shown here: `COCCCn1cnc2cc(C(=O)NC[C@H]3O[C@@H](n4cnc5c(NCc6ccc(Oc7ccccc7)cc6)ncnc54)[C@H](O)[C@@H]3O)ccc21` What is its recorded IC50?
OUT: 2600

IN: Consider the compound shown here: `O=C(NC[C@H]1O[C@@H](n2cnc3c(NCc4ccc(Oc5ccccc5)cc4)ncnc32)[C@H](O)[C@@H]1O)c1ccc2c(c1)[nH]c(=O)n2Cc1ccccn1` What is its recorded IC50?
OUT: 2100

IN: Consider the compound shown here: `O=C(NC[C@H]1O[C@@H](n2cnc3c(NCc4ccc(Oc5ccccc5)cc4)ncnc32)[C@H](O)[C@@H]1O)c1ccc2c(c1)[nH]c(=O)n2CCC1=CCCCC1` What is its recorded IC50?
OUT: 2900

IN: Consider the compound shown here: `O=C(Cc1cccc2ccccc12)NC[C@H]1O[C@@H](n2cnc3c(NCc4ccc(Oc5ccccc5)cc4)ncnc32)[C@H](O)[C@@H]1O` What is its recorded IC50?
OUT: 300

IN: Consider the compound shown here: `CC(C)CCC(=O)NC[C@H]1O[C@@H](n2cnc3c(NCc4ccc(Oc5ccccc5)cc4)ncnc32)[C@H](O)[C@@H]1O` What is its recorded IC50?
OUT: 4600

----------
# Test system: Plasmodium falciparum
# EXPERIMENT: Antiplasmodial activity against Plasmodium falciparum K1 as [3H]hypoxanthine uptake
# Type: functional, organism-based
# TEST_CONTEXT: K1, 72 h
Could you please report measured IC50 for the items listed next?
Please give a number only; it is taken to be in µM.

IN: Consider the molecule shown here: `COc1cccc(CC(=O)NC[C@H]2O[C@@H](n3cnc4c(NCc5ccc(Oc6ccccc6)cc5)ncnc43)[C@H](O)[C@@H]2O)c1` What is its recorded IC50?
OUT: 3.4

IN: Consider the molecule shown here: `CCCCCn1cnc2cc(C(=O)NC[C@H]3O[C@@H](n4cnc5c(NCc6ccc(Oc7ccccc7)cc6)ncnc54)[C@H](O)[C@@H]3O)ccc21` What is its recorded IC50?
OUT: 1.5

IN: Consider the molecule shown here: `CC(C)=CC(=O)NC[C@H]1O[C@@H](n2cnc3c(NCc4ccc(Oc5ccccc5)cc4)ncnc32)[C@H](O)[C@@H]1O` What is its recorded IC50?
OUT: 4.3

IN: Consider the molecule shown here: `CCCCn1c(=O)[nH]c2cc(C(=O)NC[C@H]3O[C@@H](n4cnc5c(NCc6ccc(Oc7ccccc7)cc6)ncnc54)[C@H](O)[C@@H]3O)ccc21` What is its recorded IC50?
OUT: 3.1

IN: Consider the molecule shown here: `O=C(NC[C@H]1O[C@@H](n2cnc3c(NCc4ccc(Oc5ccccc5)cc4)ncnc32)[C@H](O)[C@@H]1O)c1cc(Cl)cc(Cl)c1` What is its recorded IC50?
OUT: 3.5

IN: Consider the molecule shown here: `O=C(NC[C@H]1O[C@@H](n2cnc3c(NCc4ccc(Oc5ccccc5)cc4)ncnc32)[C@H](O)[C@@H]1O)c1ccc2c(c1)[nH]c(=O)n2COc1ccccc1` What is its recorded IC50?
OUT: 3.3
